// % Inhibition Coupled lookup, one value per entry
- Test system: p300/CBP HAT
- Assay Overview: coupled spectrophotometric assay that measures CoASH production in real-time
- Type: biochemical, human
- Assay Context: inhibitor concentration not given
Only the number, expressed in %, is required.

Asked: Determine its reported % Inhibition Coupled: "CC1=NN(c2ccc(C(N)=O)cc2)C(=O)/C1=C\c1ccc(-c2cc(C)c(C)cc2[N+](=O)[O-])o1"
Given back: 40.6

Asked: Determine its reported % Inhibition Coupled: "CC1=NN(c2ccc(C(=O)O)cc2)C(=O)/C1=C\c1ccc(-c2cc(C)c(C)cc2[N+](=O)[O-])o1"
Given back: 85.9

Asked: Determine its reported % Inhibition Coupled: "CC1=NN(c2ccc(C(=O)O)cc2)C(=O)/C1=C\c1ccc(-c2ccc([N+](=O)[O-])cc2)o1"
Given back: 35.6

Asked: Determine its reported % Inhibition Coupled: "CC1=NN(c2ccc(Cl)cc2)C(=O)/C1=C\c1ccc(-c2cc(C)c(C)cc2[N+](=O)[O-])o1"
Given back: 13.9

Asked: Determine its reported % Inhibition Coupled: "CC1=NN(c2ccc(C(=O)O)cc2)C(=O)/C1=C\c1ccc(-c2ccccc2)o1"
Given back: 33.7

Asked: Determine its reported % Inhibition Coupled: "CC1=NN(c2ccc(S(=O)(=O)O)cc2)C(=O)/C1=C\c1ccc(-c2cc(C)c(C)cc2[N+](=O)[O-])o1"
Given back: 57.4

***
Asked: Determine its reported % Inhibition Coupled: "CC1=NN(c2ccc(C(=O)O)cc2)C(=O)C1"
Given back: 16.3

* * *

// melting point lookup, one value per entry

Examples from the recorded data:
Asked: Determine its reported melting point: CC1=NN(c2ccc(C(=O)O)cc2)C(=O)/C1=C\c1ccc(-c2ccc([N+](=O)[O-])cc2)o1 [Compound 6b]
Given back: 338 to 341 °C

Asked: Determine its reported melting point: CC1=NN(c2ccc(S(=O)(=O)O)cc2)C(=O)/C1=C\c1ccc(-c2cc(C)c(C)cc2[N+](=O)[O-])o1 [Compound 6f]
Given back: 210 to 213 °C

Asked: Determine its reported melting point: CC1=NN(c2ccc(C(=O)O)cc2)C(=O)/C1=C\c1ccc(-c2ccccc2)o1 [Compound 6a]
Given back: 306 to 309 °C

***
Asked: Determine its reported melting point: CC1=NN(c2ccc(Cl)cc2)C(=O)/C1=C\c1ccc(-c2cc(C)c(C)cc2[N+](=O)[O-])o1 [Compound 6i]
Given back: 220 to 223 °C

* * *

- Target Entity: D1625R/D1628R p300 HAT (Homo sapiens, UniProt Q09472, D1625R/D1628R/DEL1523-1554/M1652G)
- Construct: linking the natural N- and C-termini (residues 1287 and 1666) of the HAT domain; made in house
- Sequence (Q09472 with tags, fused parts or gaps DEL1523-1554/D1625R/D1628R/M1652G): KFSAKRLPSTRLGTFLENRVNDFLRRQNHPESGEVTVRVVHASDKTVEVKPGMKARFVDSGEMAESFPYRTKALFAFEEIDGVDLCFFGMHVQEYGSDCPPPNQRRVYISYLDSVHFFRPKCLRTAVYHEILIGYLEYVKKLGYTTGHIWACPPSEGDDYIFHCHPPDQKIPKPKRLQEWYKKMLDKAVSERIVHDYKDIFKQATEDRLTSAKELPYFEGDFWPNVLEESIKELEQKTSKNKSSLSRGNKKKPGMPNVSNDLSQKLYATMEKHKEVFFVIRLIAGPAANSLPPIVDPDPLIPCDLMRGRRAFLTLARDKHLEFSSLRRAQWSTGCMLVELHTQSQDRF
- Assay Overview: HAT assay, steady state kinetic parameters of H4 tail peptide analog substrates, D1625R/D1628R p300 HAT mutant
- Format: biochemical
- Assay Context: peptide as substrate of D1625R/D1628R p300 HAT mutant
Non-standard residues stand in square brackets, D forms with d. No end group written: not given here. Cit = NC(=O)NCCC[C@H](N)C(=O)O
Result Type: V/K(M^−1s^−1) for D1625R/D1628R (M⁻¹ s⁻¹)
Only the number, expressed in M⁻¹ s⁻¹, is required.

Asked: Determine its reported V/K(M^−1s^−1) for D1625R/D1628R: GRGDGGKGLGDGGAK [H4-15(K5D/K12D)]
Given back: 422

Asked: Determine its reported V/K(M^−1s^−1) for D1625R/D1628R: RGXGGKGLGAGA (RG[Cit]GGKGLGAGA) [H4-12(K5X/K12A)]
Given back: 738

Asked: Determine its reported V/K(M^−1s^−1) for D1625R/D1628R: RGAGGKGLGAGA [H4-12(K5A/K12A)]
Given back: 515

Asked: Determine its reported V/K(M^−1s^−1) for D1625R/D1628R: GRGKGGKGLGKGGAK (Ac-GRGKGGKGLGKGGAK) [Compound H4-15]
Given back: 1162

* * *

// % Inhibition Coupled lookup, one value per entry
- Test system: p300/CBP HAT
- Assay Overview: coupled spectrophotometric assay that measures CoASH production in real-time
- Format: biochemical, human
- Assay Context: inhibitor concentration not given
Only the number, expressed in %, is required.

Asked: Determine its reported % Inhibition Coupled: "CCOC(=O)c1ccc(N2N=C(C)/C(=C/c3ccc(-c4cc(C)c(C)cc4[N+](=O)[O-])o3)C2=O)cc1"
Given back: 0

Asked: Determine its reported % Inhibition Coupled: "CC1=NN(CCCCC(=O)O)C(=O)/C1=C\c1ccc(-c2cc(C)c(C)cc2[N+](=O)[O-])o1"
Given back: 92.6

Asked: Determine its reported % Inhibition Coupled: "CC1=NN(c2ccc(C(=O)O)cc2)C(=O)/C1=C\c1ccc(-c2ccccc2F)o1"
Given back: 90.5

Asked: Determine its reported % Inhibition Coupled: "CC1=NN(c2cccc(C(=O)O)c2)C(=O)/C1=C\c1ccc(-c2cc(C)c(C)cc2[N+](=O)[O-])o1"
Given back: 63.4

***
Asked: Determine its reported % Inhibition Coupled: "CCOC(=O)c1ccccc1-c1ccc(/C=C2\C(=O)N(c3ccc(C(=O)O)cc3)N=C2C)o1"
Given back: 38.1
